Let's look at some Ki data for Adenosine receptor A3 (Homo sapiens) that I collected from the literature.
TESTED_SYSTEM: Adenosine receptor A3 (Homo sapiens)
Sequence (P0DMS8 whole entry): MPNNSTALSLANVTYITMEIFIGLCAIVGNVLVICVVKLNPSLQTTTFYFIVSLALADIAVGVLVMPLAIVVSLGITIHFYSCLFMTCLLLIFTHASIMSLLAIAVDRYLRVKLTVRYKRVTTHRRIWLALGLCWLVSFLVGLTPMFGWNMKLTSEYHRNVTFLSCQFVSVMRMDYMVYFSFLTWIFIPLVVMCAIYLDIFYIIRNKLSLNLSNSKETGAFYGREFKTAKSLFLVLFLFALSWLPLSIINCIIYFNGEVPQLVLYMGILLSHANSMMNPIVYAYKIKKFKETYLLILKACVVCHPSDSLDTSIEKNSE
So basically, if Ki comes in under 20 nM it's rule met, and if it's 20 nM or more it's rule not met.

>  <STRUCTURE_SMILES>
COc1ccc(-c2cnn(-c3nc(N)c4ncn([C@@H]5O[C@H](CO)[C@@H](O)[C@H]5O)c4n3)c2)cc1

>  <ANSWER_LABEL>
rule not met

$$$$
>  <STRUCTURE_SMILES>
CCCn1cc2c(nc(NC(=O)Nc3ccc4c(c3)OCO4)n3nc(-c4ccco4)nc23)n1

>  <ANSWER_LABEL>
rule met

$$$$
>  <STRUCTURE_SMILES>
CCNC(=O)[C@H]1O[C@@H](n2cnc3c(NC)nc(-n4cc(-c5ccccn5)nn4)nc32)[C@H](O)[C@@H]1O

>  <ANSWER_LABEL>
rule met

$$$$
>  <STRUCTURE_SMILES>
O=[N+]([O-])c1nc(NCc2ccccc2)c2ncn([C@@H]3O[C@H](CO)[C@@H](O)[C@H]3O)c2n1

>  <ANSWER_LABEL>
rule not met

$$$$
>  <STRUCTURE_SMILES>
CNC(=O)[C@H]1O[C@@H](n2cnc3c(NCc4cc(Cl)ccc4OC)ncnc32)[C@H](O)[C@@H]1N

>  <ANSWER_LABEL>
rule met

$$$$
>  <STRUCTURE_SMILES>
CNC(=O)[C@@]12C[C@@H]1[C@@H](n1cnc3c(NCC4CC4)nc(-n4cc(-c5ccc(Cl)s5)nn4)nc31)[C@H](O)[C@@H]2O

>  <ANSWER_LABEL>
rule met

$$$$
>  <STRUCTURE_SMILES>
Cn1cc2c(nc(NC(=O)Nc3ccc[n+](C)c3)n3nc(-c4ccco4)nc23)n1

>  <ANSWER_LABEL>
rule met

$$$$
>  <STRUCTURE_SMILES>
O=c1n(-c2ccccc2)nc2c(NC3CCCC3)nc3c([N+](=O)[O-])cccc3n12

>  <ANSWER_LABEL>
rule not met

$$$$
>  <STRUCTURE_SMILES>
O[C@@H]1[C@H](O)[C@@H]2C[C@@H]2[C@H]1n1cnc2c(NC(C3CCC3)C3CCC3)nc(Cl)nc21

>  <ANSWER_LABEL>
rule not met

$$$$
>  <STRUCTURE_SMILES>
CC(C)n1cc2c(Cl)nc(NC(=O)c3ccc(C(F)(F)F)cc3)nc2n1

>  <ANSWER_LABEL>
rule not met

$$$$
>  <STRUCTURE_SMILES>
Cc1cn2c(nc3c2c(=O)n(CCO)c(=O)n3Cc2ccccc2)[nH]1

>  <ANSWER_LABEL>
rule not met

$$$$
>  <STRUCTURE_SMILES>
CNC(=O)[C@@]12C[C@@H]1[C@@H](n1cnc3c(/C=C(\O)c4ccccc4)nc(Cl)nc31)[C@H](O)[C@@H]2O

>  <ANSWER_LABEL>
rule not met

$$$$
